Assay: Biliary excretion of free and total GCM after i.v. administration
Type: in vivo, rats
Conditions: Sprague-Dawley, rat, bile, iv, 10 mg/kg, free GCM, 4–6 h, i.v. 10 mg/kg; read-out: Bile recovery
MEASURE: dose excreted
Please make sure the unit comes right after the number.

IN: Any idea what its dose excreted is? The compound is COc1c(CC=C(C)C)c(O)cc2oc(=O)c(-c3ccc(O)cc3O)cc12
OUT: 0.05%

* * *

Assay: Biliary excretion of free and total GCM after i.v. administration
Format: in vivo, rats
Settings: Sprague-Dawley, rat, bile, iv, 10 mg/kg, free GCM, 2–4 h, i.v. 10 mg/kg; read-out: Bile recovery
MEASURE: dose excreted (%)
Unit % implied. Number only.

IN: Need dose excreted of COc1c(CC=C(C)C)c(O)cc2oc(=O)c(-c3ccc(O)cc3O)cc12 , thanks.
OUT: 0.08
